- assay.system: SARS-CoV-1 3CLpro (Severe acute respiratory syndrome coronavirus)
pIC50: −log10 of the molar value.
attribute.measured: pIC50

1. O=c1cc(-c2ccc(O)c(O)c2)oc2cc(O)cc(O)c12 = 3.15

###

- assay.system: MERS 3CLpro (Middle East respiratory syndrome-related coronavirus, UniProt K9N7C7)
- Sequence (K9N7C7 3248-3553 limits assumed): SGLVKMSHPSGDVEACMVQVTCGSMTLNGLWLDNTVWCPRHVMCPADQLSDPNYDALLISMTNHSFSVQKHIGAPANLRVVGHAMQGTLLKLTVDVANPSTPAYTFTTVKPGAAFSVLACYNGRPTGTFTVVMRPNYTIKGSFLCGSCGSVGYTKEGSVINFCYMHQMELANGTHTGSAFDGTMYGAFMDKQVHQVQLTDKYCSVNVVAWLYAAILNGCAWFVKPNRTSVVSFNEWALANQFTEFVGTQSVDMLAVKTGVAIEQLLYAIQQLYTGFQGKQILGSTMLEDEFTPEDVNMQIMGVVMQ
attribute.measured: IC50

1) O=c1cc(-c2ccc(O)c(O)c2)oc2cc(O)cc(O)c12 = 388 µM

###

- assay.system: UniProtKB P0DTD1
- experimental.details: biochemical
- Format: biochemical
- condition.summary: read-out: IC50 of micronutrients against 3CLpro
pIC50: −log10 of the molar value.
# pIC50 listing for each entry below
attribute.measured: pIC50

1. [Cl-].[Cl-].[Mg+2] = 1.62
2. [Cl-].[Cl-].[Zn+2] = 2.96
3. [Ca+2].[Cl-].[Cl-] = 2.72
4. [Cl][Mn][Cl] = 2.64

###

- assay.system: 3CLpro (Severe acute respiratory syndrome coronavirus 2, UniProt P0DTD1)
- Format: binding, SARS-CoV-2
- condition.summary: additive in the absence of luteolin
Parameter: fold increase of ΔHcal over free 3CLpro. Scope: all listed entries.
attribute.measured: fold increase of ΔHcal over free 3CLpro (fold)

1. [Cl][Mn][Cl] = 3
2. [Cl-].[Cl-].[Mg+2] = 2
3. [Cl-].[Cl-].[Zn+2] = 4
4. O=C1O[C@H]([C@@H](O)CO)C(O)=C1O [Vitamin C, L-ascorbate] = 8

###

- assay.system: SARS-CoV-2 3CLpro (Severe acute respiratory syndrome coronavirus 2, UniProt P0DTD1)
- experimental.details: biochemical
- Assay type: biochemical
- condition.summary: 2 µM 3CLpro; 60 µM peptide substrate; absence of micronutrients
pIC50: −log10 of the molar value.
attribute.measured: pIC50

1. O=c1cc(-c2ccc(O)c(O)c2)oc2cc(O)cc(O)c12 [luteolin] = 4.11

###

- assay.system: SARS-CoV-2 3CLpro (Severe acute respiratory syndrome coronavirus 2, UniProt P0DTD1)
attribute.measured: Ki (µM)

1) O=c1cc(-c2ccc(O)c(O)c2)oc2cc(O)cc(O)c12 = 93
